Test system: potential yeast hosts (I. orientalis, S. cerevisiae)
Protocol Description: Tolerance of potential yeast hosts: maximum concentration in which growth was detected
Format: cell-based
Assay Setup: Table E
Quick reference: Max conc (maximum concentration in which growth was detected) of the listed items.
Observable: Max conc (maximum concentration in which growth was detected) (g/L)

>  <Compound>
O=C(O)CC[C@@](O)(CC(=O)O)C(=O)O [Homocitrate]

>  <Measured>
100

$$$$
>  <Compound>
CC(C)C(O)(CC(=O)O)C(=O)O (stereo not shown) [2-isopropylmalic acid]

>  <Measured>
50

$$$$
>  <Compound>
O=C(O)CC1(C(=O)O)CCC(=O)O1 (stereo not shown) [Homocitrate lactone]

>  <Measured>
100

$$$$
>  <Compound>
CC(C)C(C(=O)O)C(O)C(=O)O (stereo not shown) [3-isopropylmalic acid]

>  <Measured>
50

$$$$

----------
Recorded Max conc (maximum concentration in which growth was detected) for the following molecules
Tested on: potential bacterial hosts (E. coli, C. glutamicum, B. firmus, B. cohnii)
Protocol Description: Tolerance of potential bacterial hosts: highest concentration with growth observed
Format: cell-based
Assay Setup: Table L
Observable: Max conc (maximum concentration in which growth was detected) (g/L)

>  <Molecule>
C=C1CCOC1=O

>  <Unit Abbrev>
g/L

>  <Measured>
5

$$$$
>  <Molecule>
C=CC(=O)OCCO [Hydroxyethyl acrylate]

>  <Unit Abbrev>
g/L

>  <Measured>
20

$$$$
>  <Molecule>
C=C1CC(C)OC1=O (stereo not shown)

>  <Unit Abbrev>
g/L

>  <Measured>
5

$$$$
>  <Molecule>
C=CC(=O)OCO [Hydroxymethyl acrylate]

>  <Unit Abbrev>
g/L

>  <Measured>
20

$$$$
